- assaySummary: Cytotoxicity against rat INS1 cells assessed as cell viability at 10 uM incubated for 24 hrs by MTT assay relative to untreated control
- Type: cell-based
- studyConditions: read-out: Activity
measureName: viability at 24 h, 10 µM (%)
Give bare numbers, in %.

Provide each entry's viability at 24 h, 10 µM from the list below.
1. O=C(Nc1ccc(C(F)(F)F)cc1)c1cc(Cc2ccc(F)cc2)n[nH]1
2. COc1ccc(OC)c(NC(=O)c2cc(Cc3ccc(F)cc3)n[nH]2)c1

1. 92.8
2. 104

* * *

- assaySummary: Cytotoxicity against rat INS1 cells assessed as cell viability at 10 uM incubated for 24 hrs by MTT assay relative to untreated control
- Assay type: cell-based
- studyConditions: read-out: Activity
measureName: viability at 24 h, 10 µM (%)
Give bare numbers, in %.

O=C(Nc1ccc(F)cc1)c1cc(Cc2ccc(F)cc2)n[nH]1
100

Provide each entry's viability at 24 h, 10 µM from the list below.
1. COC(=O)c1ccc(NC(=O)c2cc(Cc3ccc(OC)cc3)n[nH]2)cc1
2. O=C(Nc1ccc(C(F)(F)F)cc1)c1cc(Cc2ccc(Cl)cc2)n[nH]1
3. COc1ccc(Cc2cc(C(=O)Nc3cccc(OC)c3OC)[nH]n2)cc1
4. COc1cccc(NC(=O)c2cc(Cc3ccc(Cl)cc3)n[nH]2)c1
5. O=C(Nc1ccc(F)cc1)c1cc(Cc2ccc(Cl)cc2)n[nH]1
6. COc1ccc(NC(=O)c2cc(Cc3ccc(Cl)cc3)n[nH]2)cc1
7. COc1ccc(NC(=O)c2cc(Cc3ccc(Cl)cc3)n[nH]2)c(OC)c1

[99.2, 102, 98.9, 96.5, 94.9, 101, 96.3]

What value of viability at 24 h, 10 µM has been reported for the following compound? COc1cccc(NC(=O)c2cc(Cc3ccc(F)cc3)n[nH]2)c1OC
102
